Target: Concanavalin-A (Canavalia ensiformis) (UniProt P02866)
Sequence (P02866 whole entry, looked up): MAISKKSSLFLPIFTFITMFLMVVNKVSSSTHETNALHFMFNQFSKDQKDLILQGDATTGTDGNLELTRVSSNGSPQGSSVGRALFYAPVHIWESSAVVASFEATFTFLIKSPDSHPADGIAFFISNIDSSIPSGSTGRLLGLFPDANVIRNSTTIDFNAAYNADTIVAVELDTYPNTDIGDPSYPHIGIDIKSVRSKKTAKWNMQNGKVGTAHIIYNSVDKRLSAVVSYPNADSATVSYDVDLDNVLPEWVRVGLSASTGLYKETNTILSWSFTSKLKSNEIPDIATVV
Test: ConA small-molecule binders, primary screen, artefact control for SMM control protein annotation, biochemical, small-molecule microarray, Alexa647 label, 635 nm (AID 1127);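 note: z combines 667 nm emission intensity with signal-to-noise across three replicate slides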
Settings: ConA-A647 binding fluorescence, higher = more signal
READOUT KIND: composite z-score
One number for each entry.

MOLECULE	ASSAY SYSTEM	composite z-score
O=C(NN=C1C[C@@H](O)[C@@H](O)[C@@H]2[C@@H]3C(=O)N(C[C@@H]4CCCO4)C(=O)[C@@H]3CC[C@@H]12)OCc1ccccc1	Concanavalin-A (Canavalia ensiformis) (UniProt P02866)	-0.18
O=C1[C@H]2[C@H]3[C@H](O)[C@H](O)CC(=NOC[C@@H](O)COCc4ccco4)[C@H]3CC[C@H]2C(=O)N1c1ccc(F)cc1F	Concanavalin-A (Canavalia ensiformis) (UniProt P02866)	-1.03
CCOC(=O)[C@H](Cc1ccccc1)NC(=O)CCC1CC(OC(=O)NCc2cccc3ccccc23)CC2(CCCC(COC(=O)NCCC(C)C)O2)O1 (some centres not stated)	Concanavalin-A (Canavalia ensiformis) (UniProt P02866)	0.653
COC(=O)[C@H](C)NC(=O)CCC1CC(OC(=O)NCc2ccc3c(c2)OCO3)CC2(CCCC(COC(=O)NCC3CCCCC3)O2)O1 (some centres not stated)	Concanavalin-A (Canavalia ensiformis) (UniProt P02866)	1.05
COc1ccc(O[C@@H]2[C@H](O)CO[C@H]2C=Cc2ccccc2)cc1	Concanavalin-A (Canavalia ensiformis) (UniProt P02866)	-0.283
CCc1cc2c(nc1CC)CCN(CCC(C)=NO[C@H](C)c1cn([C@H](CO)Cc3ccccc3)nn1)C2	Concanavalin-A (Canavalia ensiformis) (UniProt P02866)	-0.0875

With those in mind, consider the next molecule.
Prompt: Please look up its composite z-score: COC(=O)CC=C[C@@H](C)[C@@H](C=NO[C@@H](C)c1cc(-c2c(C)cc(C)cc2C)no1)NS(=O)(=O)c1ccc(C)cc1
Response: -0.985

---

Experiment: E. coli DRC41 culture turbidity changes, primary screen, E. coli filamentation inducer project, strain DRC41, OD650, 48 h (AID 1152);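 note: E. coli MC1000 strain DRC41 lacking acrAB efflux pump and sulA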
Details: E. coli DRC41 (acrAB sulA), higher = more signal, called active from +8 up or from −8 down
READOUT KIND: z-score
One number for each entry.

STRUCTURE NOTATION	z-score
CCc1cc2c(nc1CC)CCN(CCC(C)=NOC[C@H]1O[C@H](c3ccccc3)C=C[C@@H]1Oc1ccc(OC)cc1)C2	-0.563

Parameters: items (list). Returns: z-score for each item.
1. C=CC[C@@H]1C=C[C@H](ON=C[C@@H](C)[C@H](OCc2ccccc2)C(C)C)[C@@H](CO)O1
2. COc1cccc([C@H]2Oc3ccc(OC)cc3C(=NOC[C@@H](O)COCc3ccco3)[C@@H]2O)c1
3. C[C@H](ON=C1[C@H]2CCn3c(=O)n(-c4ccccc4)c(=O)n3[C@H]2[C@H](O)[C@@H]2O[C@H]12)c1cn([C@H](CO)Cc2ccccc2)nn1

Response:
1. -0.144
2. -0.964
3. 0.699

---

For each record, write down the corresponding composite z-score.
Molecular target: Fibroblast growth factor 10 (Homo sapiens)
Experiment: FGF10 binders on small-molecule microarrays, primary screen, biochemical, small-molecule microarray, 635 nm fluorescence (AID 1102)
Details: FGF10 binding, fluorescence 635 nm, higher = more signal
Numbers only.

COMPOUND	composite z-score
CO[C@H]1COC(=O)CC=C[C@@H](C)[C@H](OC)COC(=O)CCC[C@@H]1C	0.254

Parameters: items (list). Returns: composite z-score for each item.
1. CO[C@H]1COC(=O)[C@@H]2CCCN2C(=O)CC=C[C@@H](C)[C@H](OC)COC(=O)[C@@H](OCc2ccccc2)C=C[C@@H]1C
2. COc1ccc(O[C@@H]2[C@H](O)CO[C@H]2C=Cc2ccccc2)cc1
3. COC(=O)[C@H](C)NC(=O)CCC1CC(OC(=O)NCc2cccc3ccccc23)CC2(CCCC(COC(=O)NCC(c3ccccc3)c3ccccc3)O2)O1 (some centres undefined)
4. CO[C@@H]1C=CCC(=O)N2CCC[C@H]2C(=O)OC[C@@H](C)C(=O)OC[C@H]1C
5. CC(C)CON=C1C[C@@H](O)[C@@H](O)[C@@H]2[C@@H]3C(=O)N(C4CCCCC4)C(=O)[C@@H]3CC[C@H]12

Response:
1: 0.163; 2: 0.0279; 3: 0.715; 4: 0.441; 5: 0.74

Parameters: items (list). Returns: composite z-score for each item.
1. O=C1C2=CC[C@H]3C(=O)N(c4cccc(Oc5ccccc5)c4)C(=O)[C@H]3[C@H]2[C@H](O)[C@@H]2O[C@H]12
2. CC(C)=CCCC(C)=CCON=C1C[C@@H](O)[C@@H](O)[C@@H]2[C@@H]3C(=O)N(c4ccc(F)cc4F)C(=O)[C@@H]3CC[C@@H]12
3. O=C1C[C@@H](O)[C@@H](O)[C@@H]2[C@@H]3C(=O)N(C[C@@H]4CCCO4)C(=O)[C@@H]3CC[C@H]12
4. CC(C)CON=C1C[C@@H](O)[C@@H](O)[C@@H]2[C@@H]3C(=O)N(C(C)(C)C)C(=O)[C@@H]3CC[C@H]12
5. CC(C)(C)N1C(=O)[C@H]2[C@H]3[C@H](O)[C@H](O)CC(=O)[C@@H]3CC[C@H]2C1=O
6. COC(=O)[C@H]1[C@@H](O)[C@@]2(O)c3ccccc3O[C@@]2(c2ccccc2)[C@@H]1c1ccccc1

Response:
1: 0.635; 2: 0.601; 3: 0.508; 4: -0.294; 5: 0.639; 6: 0.0746

---

Biological target: Follistatin (Homo sapiens) (UniProt P19883)
Sequence (P19883 whole entry, looked up): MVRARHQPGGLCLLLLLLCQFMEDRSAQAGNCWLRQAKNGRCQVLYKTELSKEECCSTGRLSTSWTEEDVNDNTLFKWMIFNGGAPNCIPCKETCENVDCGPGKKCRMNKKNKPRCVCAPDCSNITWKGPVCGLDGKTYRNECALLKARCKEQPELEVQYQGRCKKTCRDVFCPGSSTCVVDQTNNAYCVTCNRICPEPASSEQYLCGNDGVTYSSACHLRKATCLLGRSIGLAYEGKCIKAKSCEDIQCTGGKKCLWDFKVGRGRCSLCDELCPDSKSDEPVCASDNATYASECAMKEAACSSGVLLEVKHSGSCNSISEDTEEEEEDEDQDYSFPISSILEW
Experiment: follistatin binders on small-molecule microarrays, primary screen, biochemical, small-molecule microarray, 635/667 nm fluorescence (AID 1132)
Settings: FST binding, 635 nm fluorescence, higher = more signal
READOUT KIND: composite z-score
Numbers only.

MOLECULE	ASSAY SYSTEM	composite z-score
CCOC(=O)[C@H](Cc1ccccc1)NC(=O)CCC1CC(OC(=O)NCCc2ccc(F)cc2)CC2(CCCC(COC(=O)NCC3CCCCC3)O2)O1 (stereo partly specified)	Follistatin (Homo sapiens) (UniProt P19883)	0.857
CO[C@H]1COC(=O)[C@@H](C)COC(=O)[C@@H](OCc2ccccc2)C=C[C@@H]1C	Follistatin (Homo sapiens) (UniProt P19883)	-0.17
C#CCCCON=C1C[C@@H](O)[C@@H](O)[C@@H]2[C@@H]3C(=O)N(c4ccc(F)cc4F)C(=O)[C@@H]3CC[C@H]12	Follistatin (Homo sapiens) (UniProt P19883)	0.424
CCOC(=O)C1=NO[C@]2(C=C(Br)C3(OCCCO3)[C@H]3O[C@H]32)C1	Follistatin (Homo sapiens) (UniProt P19883)	-0.599
COC(=O)CC=C[C@H](C)[C@@H](OCc1cccc(Br)c1)[C@@H](C)[C@H](OC)C1CCCCC1	Follistatin (Homo sapiens) (UniProt P19883)	0.22

Parameters: items (list). Returns: composite z-score for each item.
1. COC(=O)C1=C(C)N(Cc2ccccc2)[C@]23O[C@](C(=O)OC)(C(=O)N2[C@@H]1c1ccccc1)C(C(=O)OC)=C3C(=O)OC
2. CCC=CCCC(OC(=O)c1ccc(Br)cc1)C1=CCCCC1=O (stereo unspecified)
3. CC=CC1=C(CO)C(=O)[C@@H]2O[C@@H]2C1=O

Response:
1: 0.732; 2: 1.11; 3: 1.44

Parameters: items (list). Returns: composite z-score for each item.
1. CCOC(=O)[C@H](CC(C)C)NC(=O)CCC1CC(OC(=O)NCCc2ccc(F)cc2)CC2(CCCC(COC(=O)NCC3CCCCC3)O2)O1 (stereo partly specified)
2. C=C(C)C(=O)OCC1CN2[C@@H](CC[C@@H](C)[C@@H]2c2ccc(Br)cc2)C(=O)O1 (stereo partly specified)
3. COC(=O)[C@H](C)NC(=O)CCC1CC(OC(=O)NCCc2ccc(F)cc2)CC2(CCCC(COC(=O)NCCC(C)C)O2)O1 (stereo partly specified)
4. CCOC(=O)[C@H](Cc1ccccc1)NC(=O)OC1CC(CCC2CC(CC)=NO2)OC2(CCCC(COC(=O)NCCC(C)C)O2)C1 (stereo partly specified)
5. CC(C)(C)N1C(=O)[C@H]2[C@H]3[C@H](O)[C@H](O)CC(=O)[C@H]3CC[C@H]2C1=O

Response:
1: 0.51; 2: 0.196; 3: 0.577; 4: 0.0871; 5: 0.558

Parameters: items (list). Returns: composite z-score for each item.
1. COc1ccc(O[C@H]2C=C[C@@H](c3ccccc3)O[C@@H]2CON=C(C)CCC(=O)OC[C@H]2O[C@H](c3ccccc3)C=C[C@@H]2Oc2ccc(OC)cc2)cc1
2. CC(C)C[C@H](NC(=O)CCC1CC(OC(=O)NCc2cccc3ccccc23)CC2(CCCC(COC(=O)NCc3ccccc3)O2)O1)C(=O)NCC(c1ccccc1)c1ccccc1 (stereo partly specified)
3. CC(CCC(=O)OC[C@H]1O[C@H](C#Cc2ccccc2)C=C[C@@H]1Oc1ccc(C)cc1)=NO[C@H](C)c1cn([C@H](CO)Cc2ccccc2)nn1

Response:
[-0.174, 0.909, 0.6]
